# appliedConditions: 298.15 K; 101.33 kPa; Liquid; Sing-around technique in a fixed-path interferometer
# reported speed of sound; entries follow

structureSmilesString: CC(C)O
speed of sound / m/s: 1140.4

structureSmilesString: NCCN
speed of sound / m/s: 1671.6

structureSmilesString: CC(C)CO
speed of sound / m/s: 1188.8

structureSmilesString: CCCCO
speed of sound / m/s: 1241.1

====

# appliedConditions: 298.15 K; 101.33 kPa; Liquid; Capillary tube (Ostwald / Ubbelohde) method
# reported viscosity; entries follow

structureSmilesString: NCCN
unitSpec: mPa·s
viscosity: 1.405
//
structureSmilesString: CC(C)O
unitSpec: mPa·s
viscosity: 2.063
//
structureSmilesString: CC(C)CO
unitSpec: mPa·s
viscosity: 3.307
//
structureSmilesString: CCCCO
unitSpec: mPa·s
viscosity: 2.565

====

# appliedConditions: 298.15 K; 101.33 kPa; Liquid
Numbers after ± are expanded uncertainties.

structureSmilesString: CC(C)O
mass density: 781.051 ± 0.51 kg/m3

structureSmilesString: NCCN
mass density: 892.389 ± 0.75 kg/m3

structureSmilesString: CC(C)CO
mass density: 798.104 ± 1 kg/m3

structureSmilesString: CCCCO
mass density: 805.953 ± 0.47 kg/m3
